- System: 293T cells
- ASSAY_SUMMARY: Cell survival rate assay (CCK-8)
- Type: cell-based
- EXPERIMENTAL_CONTEXT: LNP containing 1.5 μg Fluc-mRNA, 24 hours, CCK-8
Given measured Cell survival rate, output YES if it is greater than or equal to 40% and NO if not.

1. CCCCCCC(CCCCCC)CCOC(=O)CCCCCN(CCCCCC(=O)OCCC(CCCCCC)CCCCCC)CCN(C)CCNC    YES
2. CCCCCCCCCCOC(=O)CCCN(CCCCCC(=O)OCC(CCCCCCCC)CCCCCCCC)CCOC(=O)SCCCN(C)C    YES
3. CCCCCCC(CCCCCC)CCOC(=O)CCCCCN(CCCCCC(=O)OCCC(CCCCCC)CCCCCC)CCN(CCO)CCO    NO
4. CCCCCCCCCCOC(=O)CCCN(CCO)CCCCCC(=O)OCC(CCCCCCCC)CCCCCCCC [YK-009, reference compound]    YES
5. CCCCCCCCCCOC(=O)CCCN(CCCCCC(=O)OCCC(CCCCCC)CCCCCC)CCOC(=O)SCCCN(C)C    YES

Asked: Confirm if Cell survival rate reported for the molecule `CCCCCCCCC(CCCCCCCC)COC(=O)CCCCCN(CCCCCC(=O)OCC(CCCCCCCC)CCCCCCCC)CCN(C)CCO` is 40% or above.
Given back: YES

Asked: Quick check, Cell survival rate >= 40%? `CCCCCCCCCCCOC(=O)CCCCCN(CCCCCCCC(=O)OC(CCCCCCC)CCCCCCC)CCN(CC)CCO`
Given back: YES

Asked: Test whether the molecule `CCCCCCCCCCCOC(=O)CCCCCN(CCCCCCCC(=O)OC(CCCCCCCC)CCCCCCCC)CCN(C)CCO` records Cell survival rate of 40% or higher.
Given back: YES

Asked: Test whether the molecule `CCCCCCCCCCOC(=O)CCCN(CCCCCC(=O)OCC(CCCCCCCC)CCCCCCCC)C(=O)SCCCN(C)C` records Cell survival rate of 40% or higher.
Given back: YES

Asked: Could you verify whether the entry `CCCCCCCCCCOC(=O)CCCN(CCCCCC(=O)OCC(CCCCCCCC)CCCCCCCC)CCN(C)CCNC` shows Cell survival rate of no less than 40%?
Given back: NO

Asked: Can `CCCCCCCCCCCOC(=O)CCCCCN(CCCCCCCC(=O)OCCC(CCCCCC)CCCCCC)CCN(C)CCO` be said to have Cell survival rate at or above 40%?
Given back: NO

Asked: Has `CCCCCCCCCCCOC(=O)CCCCCN(CCCCCCCC(=O)OC(CCCCCCCC)CCCCCCCC)CCN(C)CCNC` a recorded Cell survival rate greater than or equal to 40%?
Given back: NO

Asked: Form field: Cell survival rate at least 40%? Entry: `CCCCCCCCCCCOC(=O)CCCCCN(CCCCCCCC(=O)OC(CCCCCCCC)CCCCCCCC)CCN(CC)CCO`
Given back: YES

====

- Test system: 293T cells
- ASSAY_SUMMARY: Cell survival rate assay (CCK-8)
- Format: cell-based
- EXPERIMENTAL_CONTEXT: difference of rates
- From the text: Cell recovery and passaging: 293T cells were recovered and cultured in culture dishes to the required cell number. Plating: The cells in the culture dish were digested, counted, plated in a 96-well plate at 10,000 cells per well, or in a 12-well plate at 150,000 cells per well, and cultured overnight until the cells adhered to the wall. Cell recovery and passage: The method was the same as in Example 3. Plating: The method was the same as Example 3. […]
# strict inequality: cell survival rate higher than that of SM-102 < 7% yields true, everything else yields false

Answered cases to consult:
1. CCCCCCCCC(CCCCCCCC)COC(=O)CCCCCN(CCCCCC(=O)OCC(CCCCCCCC)CCCCCCCC)CCN(C)CCO    false
2. CCCCCCCCCCCOC(=O)CCCCCN(CCCCCCCC(=O)OCC(CCCCCCCC)CCCCCCCC)CCN(C)CCO    false
3. CCCCCCCCCCCOC(=O)CCCCCN(CCCCCCCC(=O)OC(CCCCCCCC)CCCCCCCC)CCN(C)CCO    false
4. CCCCCCCCCCOC(=O)CCCN(CCCCCC(=O)OCC(CCCCCCCC)CCCCCCCC)CCN(C)CCO    true

Note: attention shifts to another entry.
Asked: Field: below-cutoff. Rule: recorded cell survival rate higher than that of SM-102 strictly less than 7%. Subject: `CCCCCCCCCCCOC(=O)CCCCCN(CCCCCCCC(=O)OC(CCCCCCC)CCCCCCC)CCN(C)CCO`
Given back: true
